# STUDY SYSTEM: T1, Human eIF4E (aa 28-217) with a C-terminal His tag (human, UniProt P06730 28-217)
# T1 construct: also called HH-eIF4E; eukaryotic initiation factor 4E
# T1 sequence (P06730 other isoform, or with tags, fused parts or gaps limits assumed): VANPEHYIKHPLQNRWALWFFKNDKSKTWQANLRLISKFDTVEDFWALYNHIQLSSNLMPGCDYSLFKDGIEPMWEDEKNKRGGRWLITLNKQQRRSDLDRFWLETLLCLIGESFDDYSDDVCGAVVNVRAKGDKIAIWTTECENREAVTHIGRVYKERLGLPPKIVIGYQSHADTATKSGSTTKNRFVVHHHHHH
# ASSAY DETAILS: TR-FRET competition vs biotin-4G2 peptide on HH-eIF4E;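 note: peptide inhibitors measured in sodium phosphate buffer at pH 6.5 containing KCl, DTT, NP40 and gammaglobulin, with a 20 min incubation at room temperature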
Square brackets hold non-standard residues; d marks the D form. Nle = CCCC[C@H](N)C(=O)O; Mamp = not defined here

# BINDER, UNIT TEXT, IC50
records = [
    ("Ac-Y[Mamb]LLAFQF[Nle]-NH2 [peptide of SEQ ID NO: 76]", "µM", 12),
    ("Ac-YDREFLLDFQF[Nle]-NH2 (SMILES CCCC[C@H](NC(=O)[C@H](Cc1ccccc1)NC(=O)[C@H](CCC(N)=O)NC(=O)[C@H](Cc1ccccc1)NC(=O)[C@H](CC(=O)O)NC(=O)[C@H](CC(C)C)NC(=O)[C@H](CC(C)C)NC(=O)[C@H](Cc1ccccc1)NC(=O)[C@H](CCC(=O)O)NC(=O)[C@H](CCCNC(=N)N)NC(=O)[C@H](CC(=O)O)NC(=O)[C@H](Cc1ccc(O)cc1)NC(C)=O)C(N)=O) [peptide of SEQ ID NO: 70]", "µM", 3.39),
    ("Ac-YDREFLLDFQF-NH2 [peptide of SEQ ID NO: 69]", "µM", 12.4),
    ("Ac-Y[Mamp]LLAFQF[Nle]-NH2 (reading uncertain) [peptide of SEQ ID NO: 77]", "µM", 5.35),
    ("Ac-KAYDREFLLDFQFMPA-NH2 [peptide of SEQ ID NO: 62]", "µM", 13.6),
    ("Ac-KQYDREFLLDFQFM-NH2 [peptide of SEQ ID NO: 54]", "µM", 8.84),
    ("Ac-KQYAREFLLDFQFMPA-NH2 [peptide of SEQ ID NO: 61]", "µM", 11.8),
    ("Ac-KQYDREFLLDFQFAPA-NH2 [peptide of SEQ ID NO: 58]", "µM", 11.3),
    ("Ac-KRFDREFLLAFQF[Nle]-NH2 (SMILES CCCC[C@H](NC(=O)[C@H](Cc1ccccc1)NC(=O)[C@H](CCC(N)=O)NC(=O)[C@H](Cc1ccccc1)NC(=O)[C@H](C)NC(=O)[C@H](CC(C)C)NC(=O)[C@H](CC(C)C)NC(=O)[C@H](Cc1ccccc1)NC(=O)[C@H](CCC(=O)O)NC(=O)[C@H](CCCNC(=N)N)NC(=O)[C@H](CC(=O)O)NC(=O)[C@H](Cc1ccccc1)NC(=O)[C@H](CCCNC(=N)N)NC(=O)[C@H](CCCCN)NC(C)=O)C(N)=O) [peptide of SEQ ID NO: 84]", "µM", 4.07),
]
